# protocolDetails: qHTS assay for identifying genotoxic compounds that show differential cytotoxicity against isogenic chicken DT40 cell lines with known DNA damage response pathways - wild type cell line (AID 743012); further: nearly all actives have a fitted effect of over 60% in size
# conditionsUsed: DT40 wild type chicken cells viability, CellTiter-Glo, 40 h; series mostly up to 68.4 µM
Inconclusive results are not listed. Calls of active or inactive are those of the source. The call rests on the fitted dose curve; in most records, active means well fitted cell-killing curve with a large enough effect in the repeat runs; inconclusive means weak or mixed curves, or effect the other way; inactive means no such curve, though single readings can be large or run the other way.
The reply should be one of these categories: active, inactive

Reference set, count: 6
Prompt: Which outcome did this test record for the molecule "NC(N)=NN=C(/C=C/c1ccc([N+](=O)[O-])o1)/C=C/c1ccc([N+](=O)[O-])o1" ?
Response: active

Prompt: Which outcome did this test record for the molecule "CC[C@@H]1C[C@H](N(Cc2cc(C(F)(F)F)cc(C(F)(F)F)c2)C(C)=O)c2cc(C(F)(F)F)ccc2N1C(=O)OC(C)C" ?
Response: active

Prompt: Which outcome did this test record for the molecule "Nc1cnn([C@@H]2O[C@H](CO)[C@@H](O)[C@H]2O)c(=O)n1" ?
Response: active

Prompt: Which outcome did this test record for the molecule CCC(C)N(C)C(=O)c1cc2ccccc2c(-c2ccccc2Cl)n1 (stereo not given) ?
Response: active

Prompt: Which outcome did this test record for the molecule "CN(C)C/C=C(/c1ccc(Br)cc1)c1cccnc1" ?
Response: active

Prompt: Which outcome did this test record for the molecule OC(CCN1CCCCC1)(c1ccccc1)C1CCCCC1 (stereo not given) ?
Response: active

Next:
Prompt: Which outcome did this test record for the molecule CCCCOC(O)CC (stereo not given) ?
Response: inactive

Prompt: Which outcome did this test record for the molecule CC(=O)/C(C)=C/C1C(C)=CCCC1(C)C (stereo not given) ?
Response: inactive
